// IC50 lookup, one value per entry
# ASSAYED SYSTEM: NUAK family SNF1-like kinase 1 (Homo sapiens, UniProt O60285)
# Sequence (O60285 whole entry): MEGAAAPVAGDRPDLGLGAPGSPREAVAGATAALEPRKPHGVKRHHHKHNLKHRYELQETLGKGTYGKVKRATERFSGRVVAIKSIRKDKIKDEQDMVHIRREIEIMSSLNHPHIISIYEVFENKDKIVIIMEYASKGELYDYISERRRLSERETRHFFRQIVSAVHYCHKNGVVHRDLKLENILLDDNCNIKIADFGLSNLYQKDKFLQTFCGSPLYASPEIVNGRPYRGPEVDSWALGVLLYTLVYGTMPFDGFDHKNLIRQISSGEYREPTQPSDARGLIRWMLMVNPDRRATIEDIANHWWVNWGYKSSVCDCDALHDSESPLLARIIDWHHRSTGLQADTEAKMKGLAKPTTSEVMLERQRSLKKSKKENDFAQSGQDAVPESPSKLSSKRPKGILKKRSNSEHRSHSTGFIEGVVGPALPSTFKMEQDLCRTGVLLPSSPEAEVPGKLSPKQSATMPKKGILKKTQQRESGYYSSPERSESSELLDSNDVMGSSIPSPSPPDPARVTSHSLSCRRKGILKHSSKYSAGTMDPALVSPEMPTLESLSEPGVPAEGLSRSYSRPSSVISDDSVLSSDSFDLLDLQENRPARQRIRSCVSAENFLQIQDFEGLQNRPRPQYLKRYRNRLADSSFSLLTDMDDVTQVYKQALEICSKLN
# TEST NAME: Inhibition of full-length recombinant human His-tagged NUAK1 expressed in baculovirus expression system by Adapta assay
METRIC NAME: IC50 (nM)

| COMPOUND | METRIC NAME | REPORTED MEASUREMENT |
| --- | --- | --- |
| Cn1cc(-c2cnc3c(-c4csc(C(=O)N[C@@H]5CCCC[C@@H]5N)c4)cnn3c2)cn1 (racemic) | IC50 | 4.2 |
| Cc1sc(C(=O)N[C@@H]2[C@H](N)CCCC2(F)F)cc1-c1cnn2cc(Cl)cnc12 | IC50 | 200 |
| O=C(NCC(F)(F)F)c1cc(-c2cnn3cc(-c4ccc(OCCN5CCCCC5)cc4)cnc23)cs1 | IC50 | 15 |
| Cn1cc(-c2cnc3c(-c4csc(C(=O)NCC(F)(F)F)c4)cnn3c2)cn1 | IC50 | 19 |
